assay system: T1, human TNFR1 (human, UniProt P19438)
T1 chain: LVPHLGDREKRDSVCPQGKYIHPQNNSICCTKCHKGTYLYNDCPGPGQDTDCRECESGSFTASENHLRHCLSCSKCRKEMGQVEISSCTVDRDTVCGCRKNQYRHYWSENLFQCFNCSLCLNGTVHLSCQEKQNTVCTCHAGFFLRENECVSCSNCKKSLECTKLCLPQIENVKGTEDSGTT
test protocol: ELISA
measured quantity: pEC50
Field pEC50 (float): negative decimal logarithm of the concentration in molar.

Past entries and their recorded results:
binder	pEC50
DOM1H-131-206 P14K + C-terminal A (antibody, V domains shown) VH: EVQLLESGGGLVQKGGSLRLSCAASGFTFAHETMVWVRQAPGKGLEWVSHIPPDGQDPFYADSVKGRFTISRDNSKNTLYLQMNSLRAEDTAVYHCALLPKRGPWFDYWGQGTLVTVSS	9.34
DOM1H-131-206 P14T (antibody, V domains shown) VH: EVQLLESGGGLVQTGGSLRLSCAASGFTFAHETMVWVRQAPGKGLEWVSHIPPDGQDPFYADSVKGRFTISRDNSKNTLYLQMNSLRAEDTAVYHCALLPKRGPWFDYWGQGTLVTVSS	9.11
DOM1H-131-206 C-terminal S deletion (antibody, V domains shown) VH: EVQLLESGGGLVQPGGSLRLSCAASGFTFAHETMVWVRQAPGKGLEWVSHIPPDGQDPFYADSVKGRFTISRDNSKNTLYLQMNSLRAEDTAVYHCALLPKRGPWFDYWGQGTLVTVS	9.30

Ask: Quick one: pEC50 for DOM1H-131-206 (antibody, V domains shown) VH: EVQLLESGGGLVQPGGSLRLSCAASGFTFAHETMVWVRQAPGKGLEWVSHIPPDGQDPFYADSVKGRFTISRDNSKNTLYLQMNSLRAEDTAVYHCALLPKRGPWFDYWGQGTLVTVSS ?
Reply: 9.17

Ask: What do you get for DOM1H-131-206 P14Q + C-terminal ASTKG (antibody, V domains shown) VH: EVQLLESGGGLVQQGGSLRLSCAASGFTFAHETMVWVRQAPGKGLEWVSHIPPDGQDPFYADSVKGRFTISRDNSKNTLYLQMNSLRAEDTAVYHCALLPKRGPWFDYWGQGTLVTVSS ?
Reply: 8.96

Ask: What do you get for DOM1H-131-206 P14Q + C-terminal A (antibody, V domains shown) VH: EVQLLESGGGLVQQGGSLRLSCAASGFTFAHETMVWVRQAPGKGLEWVSHIPPDGQDPFYADSVKGRFTISRDNSKNTLYLQMNSLRAEDTAVYHCALLPKRGPWFDYWGQGTLVTVSS ?
Reply: 9.34
